# system: HLA-A3.2 (Homo sapiens, UniProt P04439)
# Construct: endogenous in cells; host or cells: EBV transformed cell line GM3107 (protein purified from NP40 lysate)
# Sequence (P04439 25-365): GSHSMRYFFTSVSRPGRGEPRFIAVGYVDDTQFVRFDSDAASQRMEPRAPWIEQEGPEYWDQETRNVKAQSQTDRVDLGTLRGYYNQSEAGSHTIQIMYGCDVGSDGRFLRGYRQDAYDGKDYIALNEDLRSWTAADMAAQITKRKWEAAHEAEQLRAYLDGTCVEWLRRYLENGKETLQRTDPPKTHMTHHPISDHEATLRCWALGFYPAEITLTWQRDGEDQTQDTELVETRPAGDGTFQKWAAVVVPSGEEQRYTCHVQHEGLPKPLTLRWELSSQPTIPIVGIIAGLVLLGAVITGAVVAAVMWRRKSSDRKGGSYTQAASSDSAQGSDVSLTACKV
# Sequence (P61769 21-119, further chain): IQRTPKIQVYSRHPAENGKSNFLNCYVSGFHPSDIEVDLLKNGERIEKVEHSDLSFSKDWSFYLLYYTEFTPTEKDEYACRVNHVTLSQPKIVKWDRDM
# Format: binding
# measurement.context: HLA-A3.2; IC50 of standard divided by IC50 of tested peptide; cysteines synthesized as alanine

[
  {
    "chain": "IVYRDGNPY [residues 59-67 of HPV16 protein E6]",
    "binding ratio to standard": 3.0000
  },
  {
    "chain": "HYNIVTFCC [residues 51-59 of HPV16 protein E7]",
    "binding ratio to standard": 0.0260
  },
  {
    "chain": "LIRCINCQK [residues 107-115 of HPV16 protein E6]",
    "binding ratio to standard": 3.7000
  },
  {
    "chain": "CCKCDSTLR [residues 58-66 of HPV16 protein E7]",
    "binding ratio to standard": 0.0016
  },
  {
    "chain": "YAVCDKCLK [residues 67-75 of HPV16 protein E6]",
    "binding ratio to standard": 0.0012
  },
  {
    "chain": "QQYNKPLCD [residues 97-105 of HPV16 protein E6]",
    "binding ratio to standard": 0.0045
  },
  {
    "chain": "CCRSSRTRR [residues 146-154 of HPV16 protein E6]",
    "binding ratio to standard": 0.0020
  },
  {
    "chain": "TTLEQQYNK [residues 93-101 of HPV16 protein E6]",
    "binding ratio to standard": 0.0780
  },
  {
    "chain": "VYCKQQLLR [residues 38-46 of HPV16 protein E6]",
    "binding ratio to standard": 0.0012
  },
  {
    "chain": "KISEYRHYC [HPV16 peptide 9, residues 79-87 of HPV16 protein E6]",
    "binding ratio to standard": 0.0044
  }
]
